Target: T1, recombinant human TGF-β RII/Fc chimera protein (human, UniProt P37173 24-159)
T1 construct: range 24-159; Made in HEK-F cells; Biotinylated where it was put on SA chips, otherwise captured by anti-human IgG; also called human TGFbRII/Fc; hRII-Fc; not shown: Fc region of human IgG1
T1 sequence (P37173 24-159 limits assumed, change not shown): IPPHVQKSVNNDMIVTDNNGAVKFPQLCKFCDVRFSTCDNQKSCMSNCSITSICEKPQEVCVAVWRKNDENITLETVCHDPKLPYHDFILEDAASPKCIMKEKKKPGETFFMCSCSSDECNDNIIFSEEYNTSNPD
Test: SPR Biacore, purified dAb; antigen taken as human TGF-β RII/Fc
value-type: log10(kon) (log10 of the value in M⁻¹ s⁻¹)
Recorded kon (log10, M⁻¹ s⁻¹)

So what does the record say about log10(kon) for DOM23h-439-20 (VHH, human VH dAb, error-prone matured; expressed from pDOM13, tag not described) VHH: EVQLLESGGGLVQPGGSLRLSCAASGFTFGTEQMWWVRQAPGKGLEFVSRIDSPGGRTYYADSVKGRFTISRDNSKNTLYLQMNSLRAEDTAVYYCAKRHAAGVSGTYFDYWGQGTLVTVSS ?
6.65

And what about the binder DOM23h-843-13 (VHH, human VH dAb, error-prone matured; expressed from pDOM13, tag not described) VHH: EVQLLESGGGLVQPGGSLRLSCAASGFTFDQDRMWWVRQAPGKGLEWVSAIESGGHRTYYADSVKGRFTISRDNSKNTLYLQMNSLRAEDTAVYYCANQNKSGRSGFDYWGQGTLVTVSS ?
6.71

And what about the binder DOM23h-855 (VHH, human VH domain antibody (dAb), naive lead; parent of DOM23h-855-21; not shown: C-terminal FLAG tag from vector pDOM10) VHH: EVQLLESGGGLVQPGGSLRLSCAASGFTFENTSMGWVRQAPGKGLEWVSRIDPKGSHTYYADSVKGRFTISRDNSKNTLYLQMNSLRAEDTAVYYCAKQRELGKSHFDYWGQGTLVTVSS ?
5.53

And what about the binder DOM23h-855-21 (VHH, human VH dAb, error-prone matured; expressed from pDOM13, tag not described) VHH: EVQLLESGGGLVQPGGSLRLSCAASGFTFENTSMGWVRQAPGKGLEWVSRIDPKGSHTYYTDSVKGRFTISRDNSKNTLYLQMNSLRAEDTAVYYCAKQRELGKSYFDYWGQGTLVTVSS ?
6.27

And what about the binder DOM23h-843 (VHH, human VH domain antibody (dAb), naive lead; parent of DOM23h-843-13; not shown: C-terminal FLAG tag from vector pDOM10) VHH: EVQLLESGGGLVQPGGSLRLSCAASGFTFDQDRMWWVRQAPGKGLEWVSAIESGGHRTYYADSVKGRFTISRDNSKNTLYLQMNSLRAEDTAVYYCAKQNESGRSGFDYWGQGTLVTVSS ?
5.96

And what about the binder DOM23h-439 (VHH) VHH: EVQLLESGGGLVQPGGSLRLSCAASGFTFGTEQMWWVRQAPGKGLEWVSRIDSPGGRTYYADSVKGRFTISRDNSKNTLYLQMNSLRAEDTAVYYCAKRHAAGVSGTYFDYWGQGTLVTVSS ?
6.32

The measurements presented in this section are drawn from patent US20150361176A1.
